System: patient-derived tumor organoids (PDTOs), cervical carcinoma
Experiment: Endoxifen screen in PDTOs: cervical carcinoma
Assay type: cell-based, human
Details: Homo sapiens, Patient 10, four-parameter logistic fit
Excerpt: This example describes screening endoxifen in patient-derived tumor organoids. […] The screen utilized patient-derived tumor organoids (PDTOs) along with high-throughput drug screening and machine learning-guided data analysis to quantify the efficacy of endoxifen against samples derived from individual patients diagnosed with various cancer types. […] Fresh patient biopsy samples received following surgery were cleaned and purified. […] A lower luminescence was indicative of a stronger drug response. […]
MEASURED_PARAMETER: pIC50
# reply with the number alone; pIC50 is -log10 of concentration in mol/L

Would you mind telling me what pIC50 value was observed for CC/C(=C(\c1ccc(O)cc1)c1ccc(OCCNC)cc1)c1ccccc1 [Endoxifen, 4-hydroxy-N-desmethyltamoxifen] ?
5.46
